Values compiled from ChEMBL document CHEMBL3259698.

test: Drug excretion in bile duct-cannulated rat at 5 mg/kg, po; format: ADME, organism-based; set-up: dose 5 mg/kg, route oral; conditions: read-out: Drug excretion

{"smiles.data": "CCn1nc2c(-c3ccc(Cl)cc3)c(-c3cnc(C)nc3)c(=O)n(Cc3ccc(C(F)(F)F)nc3C)n2c1=O", "dose excreted": "< 1%"}

====

assay: Cmax in rat at 10 mg/kg, qd; format: ADME, organism-based; parameters: dose 10 mg/kg; settings: in vivo
measure: Cmax (µM)

{"smiles.data": "CCn1nc2c(-c3ccc(Cl)cc3)c(-c3ccncc3)c(=O)n(Cc3ccc(C(F)(F)F)nc3C)n2c1=O", "measure": "Cmax", "quantitative.result": 4}
